- measuredTarget: Malate dehydrogenase (MDH) (Sus scrofa, UniProt P00346)
- Sequence (P00346 25-338): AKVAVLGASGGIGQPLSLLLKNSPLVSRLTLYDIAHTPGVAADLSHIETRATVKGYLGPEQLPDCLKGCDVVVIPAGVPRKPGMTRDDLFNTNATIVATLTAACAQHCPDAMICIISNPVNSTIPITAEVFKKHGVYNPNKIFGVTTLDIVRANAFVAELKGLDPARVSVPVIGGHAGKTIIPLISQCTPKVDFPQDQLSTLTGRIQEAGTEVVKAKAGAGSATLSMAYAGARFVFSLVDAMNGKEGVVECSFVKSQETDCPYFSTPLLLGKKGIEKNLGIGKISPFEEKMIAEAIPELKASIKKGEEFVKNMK
- protocolText: ITC binding of azo-NAD^+ to malate dehydrogenase
- Format: Porcine heart mitochondria (sus scrofa)
- conditionSummary: Kd (Binary), MDH binary complex, pH 7.5
measurementKind: Kd
Kindly report the value followed by its unit.

Q: Could you share which Kd value was measured for `[N-]=[N+]=Nc1ccc[n+]([C@@H]2O[C@H](COP(=O)([O-])OP(=O)(O)OC[C@H]3O[C@@H](n4cnc5c(N)ncnc54)[C@H](O)[C@@H]3O)[C@@H](O)[C@H]2O)c1` ?
A: 152 µM
